# target.or.test.system: ASK-1 enzyme (Homo sapiens, UniProt Q99683)
# Sequence (Q99683 649-946 limits assumed): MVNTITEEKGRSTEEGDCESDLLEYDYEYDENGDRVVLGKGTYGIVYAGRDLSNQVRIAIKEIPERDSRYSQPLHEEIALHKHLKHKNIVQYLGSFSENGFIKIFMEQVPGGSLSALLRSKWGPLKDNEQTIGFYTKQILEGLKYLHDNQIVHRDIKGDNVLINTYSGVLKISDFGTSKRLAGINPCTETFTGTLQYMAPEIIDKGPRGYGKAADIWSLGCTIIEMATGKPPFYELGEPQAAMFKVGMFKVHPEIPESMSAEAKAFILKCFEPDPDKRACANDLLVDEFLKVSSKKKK
property.measured: pIC50
On this scale, pIC50 is minus log10 of a concentration expressed in M (mol/L).

As a guide, the following entries are already answered.
structure.smiles | pIC50
Cc1cc2c(cc1-c1cncnc1)C(=O)N(c1cccc(-c3nncn3C(C)C)n1)CO2 | 7.70
CC(C)Cn1cc(-c2ccc3c(c2)C(=O)N(c2cccc(-c4nncn4C(C)C)n2)CO3)cn1 | 7.96
CC(C)n1cc(-c2ccc3c(c2)C(=O)N(c2cccc(-c4nncn4C(C)C)n2)CS3)cn1 | 8.21

Below: the item to evaluate.
Input line: Which pIC50 value is on record for CSc1ncc(-c2cc3c(cc2C)OCN(c2cccc(-c4nncn4C(C)C)n2)C3=O)cn1 ?
Output line: 8.11

Sourced from patent US12565491B2
